Assayed system: SARS-COV-2 RBD-MMH (SARS-COV-2 RBD extracellular domain with C-terminal myc-myc-hexahistidine tag) (SARS-CoV-2)
The entries below come with measured t½ at pH 6.0 values attached.
The figure you give is taken to be in min; do not add the unit.

Binder: mAb14294 (antibody, V domains shown) VH: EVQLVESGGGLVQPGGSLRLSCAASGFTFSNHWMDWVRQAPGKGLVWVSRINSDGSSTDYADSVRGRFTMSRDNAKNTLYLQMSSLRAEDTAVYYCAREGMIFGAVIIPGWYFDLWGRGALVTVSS VL: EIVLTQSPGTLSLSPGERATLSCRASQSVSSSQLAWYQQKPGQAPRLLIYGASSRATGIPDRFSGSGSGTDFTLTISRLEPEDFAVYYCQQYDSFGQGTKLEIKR
Value type: t½ at pH 6.0
Readout units: min
Result value: 20.5
--
Binder: mAb14257 (antibody, V domains shown) VH: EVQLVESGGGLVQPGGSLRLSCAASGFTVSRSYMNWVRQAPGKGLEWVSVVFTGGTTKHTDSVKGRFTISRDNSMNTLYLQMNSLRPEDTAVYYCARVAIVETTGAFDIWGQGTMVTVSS VL: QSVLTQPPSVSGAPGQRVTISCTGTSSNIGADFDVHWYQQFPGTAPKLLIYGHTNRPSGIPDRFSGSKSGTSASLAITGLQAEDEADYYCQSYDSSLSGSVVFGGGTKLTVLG
Value type: t½ at pH 6.0
Readout units: min
Result value: 1.4

Let's switch to this binder now.
## Input Retrieve t½ at pH 6.0 measured for mAb14230 (antibody, V domains shown) VH: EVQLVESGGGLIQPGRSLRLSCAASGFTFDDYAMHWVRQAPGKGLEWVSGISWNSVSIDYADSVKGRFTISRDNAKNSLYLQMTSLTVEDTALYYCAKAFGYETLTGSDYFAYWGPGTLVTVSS VL: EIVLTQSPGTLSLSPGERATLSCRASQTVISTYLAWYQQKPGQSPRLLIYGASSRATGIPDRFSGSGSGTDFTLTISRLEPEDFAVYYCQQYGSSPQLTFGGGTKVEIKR and print it.
## Output 1.4
